testedTarget: Glucose transporter (Leishmania mexicana) (UniProt O61059)
testName: ST_JUDE_LEISH: Cytotoxicity at 2uM final concentration against transgenic Leishmania Mexicana promastigotes LmGT2 that are glucose transport deficient and complemented with the L. Mexicana glucose transporter 2. Activity is measured by DNA content using SYBR green in vitro
Assay type: functional
reportedEndpoint: inhibition (%)

>  <molecule>
NCCCNc1nc(Nc2cccc(C(N)=O)c2)c2c(=O)[nH]ccc2n1

>  <testedTarget>
Glucose transporter (Leishmania mexicana) (UniProt O61059)

>  <reportedEndpoint>
inhibition

>  <value>
0.77

$$$$
>  <molecule>
FC(F)(F)c1ccc2[nH]c(-c3cccc(-c4ccc(CNCC5CCCO5)cc4)c3)nc2c1 (centres undefined)

>  <testedTarget>
Glucose transporter (Leishmania mexicana) (UniProt O61059)

>  <reportedEndpoint>
inhibition

>  <value>
6.46

$$$$
>  <molecule>
c1cc(CNCc2ccc3c(c2)OCO3)cc(-c2cccc(CNc3ccc4ncccc4c3)c2)c1

>  <testedTarget>
Glucose transporter (Leishmania mexicana) (UniProt O61059)

>  <reportedEndpoint>
inhibition

>  <value>
-0.38

$$$$
>  <molecule>
CCCCN(CCCC)/C(=N/c1cccc(Cl)c1Cl)Nc1ccc(C#N)cc1O

>  <testedTarget>
Glucose transporter (Leishmania mexicana) (UniProt O61059)

>  <reportedEndpoint>
inhibition

>  <value>
-4.06

$$$$
>  <molecule>
CC(C)CCn1c(Sc2ccc(C#N)c([N+](=O)[O-])c2)nnc1-c1cccc(Cl)c1

>  <testedTarget>
Glucose transporter (Leishmania mexicana) (UniProt O61059)

>  <reportedEndpoint>
inhibition

>  <value>
8.26

$$$$
>  <molecule>
Cc1noc(C)c1-c1ccc2c(Nc3nccc4ccccc34)c(C(N)=O)cnc2c1

>  <testedTarget>
Glucose transporter (Leishmania mexicana) (UniProt O61059)

>  <reportedEndpoint>
inhibition

>  <value>
102

$$$$
>  <molecule>
O=C(Nc1ccc(C(=O)Oc2ccc(-c3ccccc3)cc2)cc1)N[C@@H](Cc1ccc(O)cc1)C(=O)NC1CCN(Cc2ccc(O)cc2)C1 (some centres undefined)

>  <testedTarget>
Glucose transporter (Leishmania mexicana) (UniProt O61059)

>  <reportedEndpoint>
inhibition

>  <value>
4.33

$$$$
>  <molecule>
CC(C)NCc1cccc(-c2ccc(NC(=O)c3ccc(C#N)cc3)cc2)c1

>  <testedTarget>
Glucose transporter (Leishmania mexicana) (UniProt O61059)

>  <reportedEndpoint>
inhibition

>  <value>
10

$$$$
>  <molecule>
O=C(NC(=S)Nc1cc(C(F)(F)F)cc(C(F)(F)F)c1)c1ccc(Cl)cc1

>  <testedTarget>
Glucose transporter (Leishmania mexicana) (UniProt O61059)

>  <reportedEndpoint>
inhibition

>  <value>
-0.06

$$$$

----------
testedTarget: Hexose transporter 1 (Plasmodium falciparum) (UniProt O97467)
testName: ST_JUDE_LEISH: Cytotoxicity at 2uM final concentration against transgenic Leishmania Mexicana promastigotes LmPfHT that are glucose transport deficient and complemented with the Plasmodium falciparum hexose transporter. Activity is measured by DNA content using SYBR green in vitro
Assay type: functional
Overview of recorded inhibition for various molecules
reportedEndpoint: inhibition (%)

>  <molecule>
CCOc1ccc2c(N/N=C/c3cccc([N+](=O)[O-])c3)cc(C)nc2c1

>  <value>
4.85

$$$$
>  <molecule>
CC(=O)Nc1ccc(CN(C)C2CCN(c3cc(NC(=O)c4cccc(C)c4)ccn3)CC2)cc1

>  <value>
3.41

$$$$
>  <molecule>
Cc1cc(N2CCC(NS(=O)(=O)c3ccccc3)CC2)nc(Nc2cccc(C#N)c2)n1

>  <value>
41.9

$$$$
>  <molecule>
Nc1ncnc2occ(-c3ccc(NC(=O)Nc4cc(C(F)(F)F)ccc4F)cc3)c12

>  <value>
2.93

$$$$
>  <molecule>
O=C(NCCN1CCOCC1)c1ccc(CNC(=O)c2ccc(O)c(-c3ccc(Cl)c(Cl)c3)c2)cc1

>  <value>
2.76

$$$$
>  <molecule>
CC(Oc1ccc(Cl)cc1Cl)c1nc(-c2ccc(NC(=O)c3ccco3)cc2)no1 (centres undefined)

>  <value>
1.87

$$$$
>  <molecule>
Cn1ncc2ccc(Nc3nccc(-c4ccc5c(c4)c(N)nn5C)n3)cc21

>  <value>
97.5

$$$$
>  <molecule>
O=C(NC1CC1)c1ccc(N2CCC(COc3cccc(F)c3)CC2)nc1

>  <value>
4.16

$$$$
>  <molecule>
Cn1cncc1C(=O)Nc1ccc(-c2cccc(-c3nc4cc(F)ccc4[nH]3)c2)cc1

>  <value>
3.21

$$$$

----------
testedTarget: Hexose transporter 1 (Plasmodium falciparum) (UniProt O97467)
testName: ST_JUDE_LEISH: Cytotoxicity at 2uM final concentration against transgenic Leishmania Mexicana promastigotes LmPfHT that are glucose transport deficient and complemented with the Plasmodium falciparum hexose transporter. Activity is measured by DNA content using SYBR green in vitro
Type: functional
Overview of reported inhibition across a group of compounds:
reportedEndpoint: inhibition (%)

>  <compound>
N#Cc1cc(C(=O)c2cc(Cl)ccc2O)cn(-c2cc(Cl)cc(Cl)c2)c1=O

>  <testedTarget>
Hexose transporter 1 (Plasmodium falciparum) (UniProt O97467)

>  <reportedEndpoint>
inhibition

>  <value>
3.14

$$$$
>  <compound>
NC(=S)Cc1ccc2c(c1)OCO2

>  <testedTarget>
Hexose transporter 1 (Plasmodium falciparum) (UniProt O97467)

>  <reportedEndpoint>
inhibition

>  <value>
-0.33

$$$$
>  <compound>
CC(C)NCc1ccc(-c2ccc(CN3CCCC(c4ccccc4)C3)cc2)c(C(=O)NC2Cc3ccccc3C2)c1 (centres undefined)

>  <testedTarget>
Hexose transporter 1 (Plasmodium falciparum) (UniProt O97467)

>  <reportedEndpoint>
inhibition

>  <value>
17.4

$$$$
>  <compound>
CN1CCC(Oc2ccc(Nc3nccc(NCC(O)c4ccccc4)n3)cc2Cl)CC1 (centres undefined)

>  <testedTarget>
Hexose transporter 1 (Plasmodium falciparum) (UniProt O97467)

>  <reportedEndpoint>
inhibition

>  <value>
-3.54

$$$$
>  <compound>
CCCCCCN1CCCN(Cc2ccc(C(=O)Nc3ccc(F)c(F)c3)cc2)CC1

>  <testedTarget>
Hexose transporter 1 (Plasmodium falciparum) (UniProt O97467)

>  <reportedEndpoint>
inhibition

>  <value>
18.5

$$$$
>  <compound>
O=C(c1ccccc1)N1CCC[C@](CCCN2CCN(c3ccccc3O)CC2)(c2ccc(Cl)c(Cl)c2)C1

>  <testedTarget>
Hexose transporter 1 (Plasmodium falciparum) (UniProt O97467)

>  <reportedEndpoint>
inhibition

>  <value>
4.13

$$$$
>  <compound>
O=C(Nc1cccc(N2CCC(NCCCc3ccncc3)CC2)c1)c1cccc(C(F)(F)F)c1

>  <testedTarget>
Hexose transporter 1 (Plasmodium falciparum) (UniProt O97467)

>  <reportedEndpoint>
inhibition

>  <value>
5.68

$$$$
>  <compound>
COc1nc2c(N3CCN(CCNCc4ccc5c(n4)NC(=O)CS5)CC3)ccnc2cc1F

>  <testedTarget>
Hexose transporter 1 (Plasmodium falciparum) (UniProt O97467)

>  <reportedEndpoint>
inhibition

>  <value>
-0.85

$$$$
>  <compound>
c1ccc(CNc2nc(NCCc3c[nH]cn3)nc(N3CCCC4CCCCC43)n2)cc1 (centres undefined)

>  <testedTarget>
Hexose transporter 1 (Plasmodium falciparum) (UniProt O97467)

>  <reportedEndpoint>
inhibition

>  <value>
-0.22

$$$$
>  <compound>
O=C(N/N=C/c1nc2ccccc2[nH]1)c1cccc([N+](=O)[O-])c1

>  <testedTarget>
Hexose transporter 1 (Plasmodium falciparum) (UniProt O97467)

>  <reportedEndpoint>
inhibition

>  <value>
1

$$$$
>  <compound>
c1ccc(CCNc2ncnc3c2[nH]c2ccccc23)cc1

>  <testedTarget>
Hexose transporter 1 (Plasmodium falciparum) (UniProt O97467)

>  <reportedEndpoint>
inhibition

>  <value>
11.6

$$$$
>  <compound>
CC(C)C1C(=O)N(S(C)(=O)=O)C2CCN(C(=O)c3ccc(CN4CCCCC4)c([N+](=O)[O-])c3)C12 (centres undefined)

>  <testedTarget>
Hexose transporter 1 (Plasmodium falciparum) (UniProt O97467)

>  <reportedEndpoint>
inhibition

>  <value>
4.49

$$$$
>  <compound>
O=C(NCc1ccc(C(=O)NC2CCCCC2)cc1)c1ccc(O)c(-c2ccc(Cl)c(Cl)c2)c1

>  <testedTarget>
Hexose transporter 1 (Plasmodium falciparum) (UniProt O97467)

>  <reportedEndpoint>
inhibition

>  <value>
1.38

$$$$
>  <compound>
CN1CCN(c2ccnc3ccc(NC(=O)Nc4cccc(C#N)c4)cc23)CC1

>  <testedTarget>
Hexose transporter 1 (Plasmodium falciparum) (UniProt O97467)

>  <reportedEndpoint>
inhibition

>  <value>
2.57

$$$$
>  <compound>
CN(Cc1cccc(O)c1)C1CCN(c2cc(NC(=O)c3cccc(F)c3)ccn2)CC1

>  <testedTarget>
Hexose transporter 1 (Plasmodium falciparum) (UniProt O97467)

>  <reportedEndpoint>
inhibition

>  <value>
1.18

$$$$
>  <compound>
CC(C)C[C@H](NC(=O)[C@H](Cc1ccccc1)NC(=O)CCN1C(=O)COc2ccc(C(=O)O)cc21)C(=O)NC(CC1CCCCC1)C(O)CC(=O)NCCCn1ccnc1 (some centres undefined)

>  <testedTarget>
Hexose transporter 1 (Plasmodium falciparum) (UniProt O97467)

>  <reportedEndpoint>
inhibition

>  <value>
6.73

$$$$
>  <compound>
O=C(C=Cc1ccc(Cl)c(Cl)c1)NCCCCCN1CCCC(CCCNC(=O)c2cccs2)C1 (centres undefined)

>  <testedTarget>
Hexose transporter 1 (Plasmodium falciparum) (UniProt O97467)

>  <reportedEndpoint>
inhibition

>  <value>
3.58

$$$$
>  <compound>
Fc1ccc2[nH]c(-c3cccc(-c4ccc(CNCc5ccccc5)cc4)c3)nc2c1

>  <testedTarget>
Hexose transporter 1 (Plasmodium falciparum) (UniProt O97467)

>  <reportedEndpoint>
inhibition

>  <value>
9.95

$$$$
>  <compound>
Fc1cccc(COc2ccc(Nc3ncnc4sc(C#Cc5ncc[nH]5)cc34)cc2Cl)c1

>  <testedTarget>
Hexose transporter 1 (Plasmodium falciparum) (UniProt O97467)

>  <reportedEndpoint>
inhibition

>  <value>
-0.11

$$$$
